Target: Broad substrate specificity ATP-binding cassette transporter ABCG2 (Homo sapiens)
Sequence (Q9UNQ0 whole entry): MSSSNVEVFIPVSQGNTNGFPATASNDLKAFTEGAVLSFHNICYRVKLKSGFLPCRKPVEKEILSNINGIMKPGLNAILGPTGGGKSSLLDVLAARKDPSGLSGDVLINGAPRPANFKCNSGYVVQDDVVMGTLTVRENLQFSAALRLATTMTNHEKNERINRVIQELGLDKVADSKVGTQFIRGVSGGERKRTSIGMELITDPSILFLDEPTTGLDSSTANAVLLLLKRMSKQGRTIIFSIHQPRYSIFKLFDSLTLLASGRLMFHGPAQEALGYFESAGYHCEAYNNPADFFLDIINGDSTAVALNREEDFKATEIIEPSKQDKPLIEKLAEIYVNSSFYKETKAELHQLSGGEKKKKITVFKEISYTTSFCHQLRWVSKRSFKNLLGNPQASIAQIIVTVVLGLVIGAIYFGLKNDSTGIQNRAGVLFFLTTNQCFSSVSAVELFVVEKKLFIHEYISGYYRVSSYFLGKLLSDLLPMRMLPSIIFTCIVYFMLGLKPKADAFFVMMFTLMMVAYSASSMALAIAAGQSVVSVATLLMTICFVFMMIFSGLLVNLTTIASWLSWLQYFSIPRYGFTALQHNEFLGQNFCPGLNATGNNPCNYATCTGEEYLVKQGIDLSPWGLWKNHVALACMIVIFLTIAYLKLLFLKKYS
Experiment: Inhibition of ABCG2 (unknown origin) transfected in HEK293 cells assessed as inhibition of mitoxantrone efflux at 5 uM after 30 mins in presence of 0.1 uM chromone 1 by flow cytometry
Format: cell-based
MEASUREMENT_NAME: EC50 (nM)
Please state the figure in nM; there is no need to write the unit.

INPUT: Recorded EC50 of `COc1cccc(OC)c1/C=C/C(=O)c1ccc(C(=O)/C=C/c2c(OC)cccc2OC)cc1` , please.
OUTPUT: 15

====

Molecular target: Broad substrate specificity ATP-binding cassette transporter ABCG2 (Homo sapiens, UniProt Q9UNQ0)
Assay: Inhibition of ABCG2 (unknown origin) transfected in HEK293 cells assessed as inhibition of mitoxantrone efflux at 5 uM after 30 mins in presence of 0.1 uM (2E,2'E)-1,1'-(1,4-Phenylene)bis(3-(2,6-dimethoxyphenyl)-prop-2-en-1-one) by flow cytometry
Type: cell-based
MEASUREMENT_NAME: EC50
Could you kindly put the unit after your number?

INPUT: Reported EC50, compound `COc1ccc2[nH]cc(CCNC(=O)c3cc(=O)c4c(OCc5ccc(Br)cc5)cccc4o3)c2c1` : ____
OUTPUT: 31 nM

====

Biological target: ABCG2 ATPase (Homo sapiens, UniProt Q9UNQ0)
Sequence (Q9UNQ0 whole entry): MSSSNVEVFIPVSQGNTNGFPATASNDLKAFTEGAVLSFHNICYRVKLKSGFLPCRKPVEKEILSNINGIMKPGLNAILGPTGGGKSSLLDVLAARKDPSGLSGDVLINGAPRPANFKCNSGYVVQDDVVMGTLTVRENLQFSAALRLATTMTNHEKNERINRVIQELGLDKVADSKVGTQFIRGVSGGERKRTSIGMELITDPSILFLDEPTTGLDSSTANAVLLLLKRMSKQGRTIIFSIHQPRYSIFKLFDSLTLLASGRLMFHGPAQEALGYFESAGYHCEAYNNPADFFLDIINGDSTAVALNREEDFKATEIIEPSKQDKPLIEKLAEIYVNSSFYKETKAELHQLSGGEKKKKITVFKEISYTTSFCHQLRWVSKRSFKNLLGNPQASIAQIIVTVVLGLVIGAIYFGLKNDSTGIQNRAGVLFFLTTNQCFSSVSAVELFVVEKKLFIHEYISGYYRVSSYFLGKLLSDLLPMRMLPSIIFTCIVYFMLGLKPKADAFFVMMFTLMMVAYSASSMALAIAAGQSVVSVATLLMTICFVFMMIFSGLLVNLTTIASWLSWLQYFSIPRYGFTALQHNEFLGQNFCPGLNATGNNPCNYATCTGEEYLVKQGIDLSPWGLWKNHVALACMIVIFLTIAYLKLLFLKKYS
Test: Inhibition of human ABCG2 ATPase activity transfected in Sf9 insect cells using quercetin as substrate after 30 mins by colorimetry relative to control
Settings: human, Sf9 insect cells transfected with human ABCG2, probe quercetin; read-out: Imax
MEASUREMENT_NAME: Emax at 0.5 h (%)
The reply should contain only the number, in %.

INPUT: Looking for the measured Emax at 0.5 h of `COc1cc(OC)cc(C(=O)/C=C/c2ccc(/C=C/C(=O)c3cc(OC)cc(OC)c3)cc2)c1` , can you help?
OUTPUT: 72

====

Tested on: HEK293
Experiment: Cytotoxicity against HEK293 cells after 72 hrs by MTT assay
Format: cell-based
Details: Homo sapiens, HEK293, 72 h
MEASUREMENT_NAME: pIC50
pIC50 is defined as minus the log10 of a concentration measured in mol/L.

INPUT: Requested read-out: pIC50. Entry: `O=C1c2c(O)ccc(O)c2C(=O)c2c(NCCNCCO)ccc(NCCNCCO)c21`
OUTPUT: 8.00

====

Target: ABCG2 (Homo sapiens)
Experiment: Inhibition of ABCG2 (unknown origin) transfected in HEK293 cells assessed as inhibition of mitoxantrone efflux at 5 uM after 30 mins by flow cytometry relative to control
Type: cell-based
Settings: HEK293 cells transfected with ABCG2, probe mitoxantrone
Class assignment keyed on inhibition at 0.5 h, 5 µM, ranges lower range (below 20%), middle range (20% to below 80%), upper range (80% or more)

Completed entries (count: 10):
CN(C)c1ccc(/C=C/C(=O)c2ccc(C(=O)/C=C/c3ccc(N(C)C)cc3)cc2)cc1: middle range
O=C(/C=C/c1ccc(/C=C/C(=O)c2ccc3ccccc3c2)cc1)c1ccc2ccccc2c1: middle range
COc1cccc(C(=O)/C=C/c2ccc(/C=C/C(=O)c3cccc(OC)c3)cc2)c1: middle range
COc1ccc(/C=C/C(=O)c2ccc(C(=O)/C=C/c3ccc(OC)cc3)cc2)cc1: lower range
COc1cc(C(=O)/C=C/c2ccc(/C=C/C(=O)c3ccc(O)c(OC)c3)cc2)ccc1O: middle range
COc1ccc(OC)c(/C=C/C(=O)c2ccc(C(=O)/C=C/c3cc(OC)ccc3OC)cc2)c1: upper range
O=C(/C=C/c1ccccc1)c1ccc(C(=O)/C=C/c2ccccc2)cc1: lower range
O=C(/C=C/c1cccc2ccccc12)c1ccc(C(=O)/C=C/c2cccc3ccccc23)cc1: lower range
COc1ccc(C(=O)/C=C/c2ccc(/C=C/C(=O)c3ccc(OC)cc3)cc2)cc1: middle range
COc1cc(OC)c(OC)cc1/C=C/C(=O)c1ccc(C(=O)/C=C/c2cc(OC)c(OC)cc2OC)cc1: upper range

INPUT: Would you mind sorting `O=C(/C=C/c1ccc(/C=C/C(=O)c2ccccc2)cc1)c1ccccc1` into the appropriate category?
OUTPUT: middle range

INPUT: For this compound, which bin applies? `O=C(/C=C/c1ccc(/C=C/C(=O)c2cccc3ccccc23)cc1)c1cccc2ccccc12`
OUTPUT: middle range

====

Target: UniProt Q9UNQ0
Test: Inhibition of ABCG2 (unknown origin) transfected in HEK293 cells assessed as inhibition of mitoxantrone efflux after 30 mins by flow cytometry relative to control
Type: cell-based
In this section we review reported EC50 values for a set of molecules.
State the answer as a number, implicitly in nM.

COc1ccc(/C=C/C(=O)c2ccc(C(=O)/C=C/c3ccc(OC)c(OC)c3OC)cc2)c(OC)c1OC: 1400

INPUT: Entry `COc1cccc(OC)c1/C=C/C(=O)c1ccc(C(=O)/C=C/c2c(OC)cccc2OC)cc1` has what EC50?
OUTPUT: 200

INPUT: For the molecule shown here, `COc1ccc(OC)c(C(=O)/C=C/c2ccc(/C=C/C(=O)c3cc(OC)ccc3OC)cc2)c1` , give the reported EC50.
OUTPUT: 1300

INPUT: What value of EC50 has been reported for the following molecule? `COc1ccc(C(=O)/C=C/c2ccc(/C=C/C(=O)c3ccc(OC)c(OC)c3)cc2)cc1OC`
OUTPUT: 800

INPUT: // returns reported EC50 for input `COc1cc(OC)c(OC)cc1/C=C/C(=O)c1ccc(C(=O)/C=C/c2cc(OC)c(OC)cc2OC)cc1`
OUTPUT: 300

INPUT: Please give the measured EC50 for this molecule: `COc1cc(OC)c(/C=C/C(=O)c2ccc(C(=O)/C=C/c3c(OC)cc(OC)cc3OC)cc2)c(OC)c1`
OUTPUT: 400

====

Target: ABCG2 (Homo sapiens, UniProt Q9UNQ0)
Assay: Inhibition of ABCG2 (unknown origin) transfected in HEK293 cells assessed as inhibition of mitoxantrone efflux at 5 uM after 30 mins by flow cytometry relative to control
Type: cell-based
Conditions: HEK293 cells transfected with ABCG2, probe mitoxantrone
Classify by inhibition at 0.5 h, 5 µM. Ranges: Low (below 20%), Mid (20% to below 90%), High (90% or more)

Below, 3 molecules whose answers are already recorded.
CN(C)c1ccc(/C=C/C(=O)c2ccc(C(=O)/C=C/c3ccc(N(C)C)c4ccccc34)cc2)c2ccccc12: Low
COc1cc(/C=C/C(=O)c2ccc(C(=O)/C=C/c3cc(OC)c(OC)c(OC)c3)cc2)cc(OC)c1OC: Mid
O=C(/C=C/c1ccc2nccnc2c1)c1ccc(C(=O)/C=C/c2ccc3nccnc3c2)cc1: Low

INPUT: Given `COc1cc(OC)c(C(=O)/C=C/c2ccc(/C=C/C(=O)c3c(OC)cc(OC)cc3OC)cc2)c(OC)c1` , name the class its inhibition at 0.5 h, 5 µM places it in.
OUTPUT: Mid

INPUT: Exam item: assign `COc1cc(OC)cc(C(=O)/C=C/c2ccc(/C=C/C(=O)c3cc(OC)cc(OC)c3)cc2)c1` to the correct category.
OUTPUT: Mid

INPUT: GET /class?item= `COc1cccc(OC)c1/C=C/C(=O)c1ccc(C(=O)/C=C/c2c(OC)cccc2OC)cc1`
OUTPUT: High

INPUT: Which bin, given its inhibition at 0.5 h, 5 µM, does `COc1ccc(C(=O)/C=C/c2ccc(/C=C/C(=O)c3ccc(OC)c(OC)c3)cc2)cc1OC` occupy?
OUTPUT: High

INPUT: Category of `O=C(O)c1ccc(/C=C/C(=O)c2ccc(C(=O)/C=C/c3ccc(C(=O)O)cc3)cc2)cc1` :
OUTPUT: Low

INPUT: Form field 'band' for `COc1ccccc1C(=O)/C=C/c1ccc(/C=C/C(=O)c2ccccc2OC)cc1`
OUTPUT: High

INPUT: Classify this molecule: `COc1cc(/C=C/C(=O)c2ccc(C(=O)/C=C/c3ccc(O)c(OC)c3)cc2)ccc1O`
OUTPUT: Low

INPUT: Lab note: sort `COc1ccc(/C=C/C(=O)c2ccc(C(=O)/C=C/c3ccc(OC)c(OC)c3OC)cc2)c(OC)c1OC` into the matching inhibition at 0.5 h, 5 µM band.
OUTPUT: Mid
